# Test system: NCI-H322M lung
# EXPERIMENT_DESCRIPTION: NCI-60 one-dose screen, 48 h
# STATED_CONDITIONS: 10 µM unless noted
Compounds without any hit were thinned out: in the full panel of roughly 83,000, 20% have a hit. The source made the active and inactive calls. The calls were made as follows: active = growth percent below 10; inactive = the rest.
Write down the outcome that applies. Available outcomes: T = active, F = inactive

// below: answered compounds
COc1ccc(N=Nc2c(N)nn3c(-c4ccc([N+](=O)[O-])cc4)ccnc23)cc1    F
N#Cc1ccc(C(=O)CSc2nc3c(c(Nc4ccc(S(N)(=O)=O)cc4)n2)CCC3)cc1    F
Cc1ccc(C(=O)Nc2ccc(-n3ccnc3)c(C(F)(F)F)c2)cc1C#Cc1cnc2cccnn12    F
Nc1cc(-c2c[nH]c3ccc(Br)cc23)nc2cc(-c3c[nH]c4ccccc34)nn12    T
Cc1cc(Cl)ccc1NC(=O)Nc1ccc(-c2ccc3c(c2)NC(=O)/C3=C\c2ccc[nH]2)cc1    F

IN: Dear all, I need the recorded test outcome for N#Cc1c(NC(=O)N2CCOCC2)n(-c2ccc(OC(F)(F)F)cc2)c2cc(F)ccc12 , thank you.
OUT: F

IN: Dear all, I need the recorded test outcome for CNc1nc2ccccc2n2c(-c3ccc(O)c(O)c3)cnc12 , thank you.
OUT: F
